assay-explanation: Rat dose proportionality study (oral)
cond: male, Sprague-Dawley, plasma, 300 mg/kg

>  <structure-string>
COc1cccc2c1nc(C(F)F)n2-c1nc(N2CCOCC2)nc(N2CCN(S(=O)(=O)CCN(C)C)CC2)n1

>  <Tmax>
4 h

$$$$

###

Below, each of the molecules is paired with its reported remaining activity at 1 µM value.
subject-of-test: panel of 442 kinases (Homo sapiens, UniProt O14965)
Construct: purchased Ambit Biosciences (scanMAXX KINOMEscan)
Sequence (O14965 whole entry): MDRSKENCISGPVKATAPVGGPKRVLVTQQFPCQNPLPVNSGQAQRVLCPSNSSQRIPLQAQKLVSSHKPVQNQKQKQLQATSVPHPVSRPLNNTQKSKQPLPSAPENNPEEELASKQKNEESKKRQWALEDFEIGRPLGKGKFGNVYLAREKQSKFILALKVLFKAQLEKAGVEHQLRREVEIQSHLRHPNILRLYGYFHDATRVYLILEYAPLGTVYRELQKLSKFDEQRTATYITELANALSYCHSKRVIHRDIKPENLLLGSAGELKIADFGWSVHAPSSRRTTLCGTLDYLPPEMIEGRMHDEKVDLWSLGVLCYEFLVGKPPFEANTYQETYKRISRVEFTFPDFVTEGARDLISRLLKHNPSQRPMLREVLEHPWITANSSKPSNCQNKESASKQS
assay-explanation: biochemical
Format: binding
cond: AURKA; 1 µM; read-out: % of control at 1 µM
measurement-type: remaining activity at 1 µM (%)

>  <molecule>
Nc1cc(C(F)(F)F)c(-c2cc(N3CCOCC3)nc(N3CCOCC3)n2)cn1 [Buparlisib]

>  <reading>
100

$$$$
>  <molecule>
FC(F)c1nc2ccccc2n1-c1nc(N2CCOCC2)nc(N2CCOCC2)n1 [ZSTK474]

>  <reading>
100

$$$$
>  <molecule>
Cn1c(=O)n(-c2ccc(C(C)(C)C#N)cc2)c2c3cc(-c4cnc5ccccc5c4)ccc3ncc21 [Dactolisib]

>  <reading>
100

$$$$
>  <molecule>
COc1ncc(-c2ccc3nccc(-c4ccnnc4)c3c2)cc1NS(=O)(=O)c1ccc(F)cc1F [Omipalisib]

>  <reading>
100

$$$$

###

subject-of-test: panel of 442 kinases (Homo sapiens)
Construct: purchased Ambit Biosciences (scanMAXX KINOMEscan)
assay-explanation: biochemical
Type: binding
cond: kinase PAK6; 1 µM; read-out: % of control at 1 µM

>  <structure-string>
Cn1c(=O)n(-c2ccc(C(C)(C)C#N)cc2)c2c3cc(-c4cnc5ccccc5c4)ccc3ncc21

>  <remaining activity at 1 µM [%]>
92

$$$$
>  <structure-string>
FC(F)c1nc2ccccc2n1-c1nc(N2CCOCC2)nc(N2CCOCC2)n1

>  <remaining activity at 1 µM [%]>
100

$$$$
>  <structure-string>
Nc1cc(C(F)(F)F)c(-c2cc(N3CCOCC3)nc(N3CCOCC3)n2)cn1

>  <remaining activity at 1 µM [%]>
96

$$$$
>  <structure-string>
COc1ncc(-c2ccc3nccc(-c4ccnnc4)c3c2)cc1NS(=O)(=O)c1ccc(F)cc1F

>  <remaining activity at 1 µM [%]>
100

$$$$

###

subject-of-test: panel of 442 kinases (Homo sapiens, UniProt P35590)
Construct: purchased Ambit Biosciences (scanMAXX KINOMEscan)
Sequence (P35590 22-1138): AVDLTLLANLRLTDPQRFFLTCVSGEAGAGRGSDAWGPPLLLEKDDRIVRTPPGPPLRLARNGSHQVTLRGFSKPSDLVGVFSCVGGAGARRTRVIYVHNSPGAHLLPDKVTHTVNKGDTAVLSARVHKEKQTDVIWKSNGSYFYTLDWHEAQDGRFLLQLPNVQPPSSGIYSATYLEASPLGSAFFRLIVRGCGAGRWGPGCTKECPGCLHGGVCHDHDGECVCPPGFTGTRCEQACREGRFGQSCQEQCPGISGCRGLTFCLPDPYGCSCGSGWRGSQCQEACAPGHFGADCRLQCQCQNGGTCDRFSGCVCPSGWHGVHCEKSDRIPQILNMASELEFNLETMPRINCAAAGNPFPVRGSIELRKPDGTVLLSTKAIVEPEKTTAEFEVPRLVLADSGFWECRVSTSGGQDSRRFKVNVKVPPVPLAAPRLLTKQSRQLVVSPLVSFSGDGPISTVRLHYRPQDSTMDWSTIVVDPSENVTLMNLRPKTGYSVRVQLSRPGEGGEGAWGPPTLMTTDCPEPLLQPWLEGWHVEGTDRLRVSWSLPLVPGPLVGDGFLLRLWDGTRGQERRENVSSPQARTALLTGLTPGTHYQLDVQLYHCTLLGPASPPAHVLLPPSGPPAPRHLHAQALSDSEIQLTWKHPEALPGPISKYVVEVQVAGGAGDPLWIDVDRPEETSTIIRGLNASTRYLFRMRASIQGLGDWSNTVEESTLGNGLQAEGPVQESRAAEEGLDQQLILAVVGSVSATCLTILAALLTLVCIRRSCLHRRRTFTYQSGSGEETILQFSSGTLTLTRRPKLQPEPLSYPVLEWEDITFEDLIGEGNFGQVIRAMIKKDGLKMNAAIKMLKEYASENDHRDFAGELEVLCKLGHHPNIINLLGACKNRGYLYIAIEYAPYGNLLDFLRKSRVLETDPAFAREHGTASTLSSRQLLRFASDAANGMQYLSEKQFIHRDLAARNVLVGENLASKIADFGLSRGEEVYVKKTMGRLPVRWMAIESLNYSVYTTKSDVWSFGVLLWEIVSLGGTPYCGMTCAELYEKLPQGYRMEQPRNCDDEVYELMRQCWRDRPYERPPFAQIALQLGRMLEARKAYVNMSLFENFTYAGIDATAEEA
assay-explanation: biochemical
Format: binding
cond: kinase TIE1; 1 µM; read-out: TIE1 (% of control at 1 µM)
measurement-type: remaining activity at 1 µM (%)

>  <structure-string>
FC(F)c1nc2ccccc2n1-c1nc(N2CCOCC2)nc(N2CCOCC2)n1

>  <reading>
88

$$$$
>  <structure-string>
COc1ncc(-c2ccc3nccc(-c4ccnnc4)c3c2)cc1NS(=O)(=O)c1ccc(F)cc1F

>  <reading>
100

$$$$
>  <structure-string>
Nc1cc(C(F)(F)F)c(-c2cc(N3CCOCC3)nc(N3CCOCC3)n2)cn1

>  <reading>
96

$$$$
>  <structure-string>
Cn1c(=O)n(-c2ccc(C(C)(C)C#N)cc2)c2c3cc(-c4cnc5ccccc5c4)ccc3ncc21

>  <reading>
100

$$$$

###

subject-of-test: panel of 442 kinases (Homo sapiens)
Construct: purchased Ambit Biosciences (scanMAXX KINOMEscan)
assay-explanation: biochemical
Assay type: binding
cond: BRSK1; 1 µM; read-out: % of control at 1 µM

>  <structure-string>
FC(F)c1nc2ccccc2n1-c1nc(N2CCOCC2)nc(N2CCOCC2)n1

>  <remaining activity at 1 µM [%]>
98

$$$$
>  <structure-string>
Nc1cc(C(F)(F)F)c(-c2cc(N3CCOCC3)nc(N3CCOCC3)n2)cn1

>  <remaining activity at 1 µM [%]>
100

$$$$
>  <structure-string>
COc1ncc(-c2ccc3nccc(-c4ccnnc4)c3c2)cc1NS(=O)(=O)c1ccc(F)cc1F

>  <remaining activity at 1 µM [%]>
100

$$$$
>  <structure-string>
Cn1c(=O)n(-c2ccc(C(C)(C)C#N)cc2)c2c3cc(-c4cnc5ccccc5c4)ccc3ncc21

>  <remaining activity at 1 µM [%]>
83

$$$$

Reference source for all entries: paper PMC5564600
